Method summary: qHTS for Inhibitors of Plasmodium falciparum (CP250) proliferation (AID 504320)
Condition context: P. falciparum CP250 in erythrocytes, SYBR Green DNA, 72 h; series mostly up to 6.7 µM
Records with an inconclusive call do not appear. Calls of active or inactive are those of the source. Calls come from the whole dose curve; as a rule, active = well fitted inhibition curve with a large enough effect; inconclusive = small, poorly fitted or top-dose-only effect, or effect the other way; inactive = flat fitted curve, though single readings scatter.
Outcome codes: 1 (yes) = active, 0 (no) = inactive

| Compound | Class |
| --- | --- |
| COC(=O)N[C@@H](c1ccccc1)[C@]1(C(=O)OC)CCCC1=O | 0 (no) |
| C=CCN1C=C2C(=O)C(C)(OC(=O)c3cccs3)C(=O)C=C2C=C1CCCC(=O)OC (stereo not given) | 0 (no) |
| C=CCN1C=C2C(=O)C(C)(OC(=O)CC)C(=O)C=C2C=C1CCCC (stereo not given) | 0 (no) |
| COC(=O)[C@@H]1CC[C@H](C)[C@@H](c2ccc(C)cc2)N1C(=O)c1ccc(C=NO[C@@H](C)c2cc(-c3c(C)cc(C)cc3C)no2)cc1 | 1 (yes) |
| CC(C)Nc1oc(-c2ccccc2)nc1C=Cc1ccccc1 | 0 (no) |
| CCCCc1nc2c(c3c1C[C@H](C)OC3)CN(S(=O)(=O)c1ccc(Cl)c3nonc13)CC2 | 0 (no) |
| C=CCNC(=O)N1CCc2nc(COc3ccccc3)c3c(c2C1)CO[C@@H](C)C3 | 0 (no) |
| C=CCN1C=C2C(=O)C(C)(OC(=O)CCc3ccccc3)C(=O)C=C2C=C1c1ccc(C#N)cc1 (stereo not given) | 0 (no) |
| COc1cccc([C@@H]2Oc3ccc(Br)cc3C(=O)[C@@H]2OC(=O)Nc2cc(OC)c(OC)c(OC)c2)c1 | 0 (no) |
| COC(=O)C[C@H]1c2ccccc2[C@H]2C(=C[C@@H](C)[C@H]3C(=O)N(O)C(=O)[C@H]32)N1C(=O)OC | 0 (no) |
| C[C@H]1Cc2c(-c3ccccc3)nc3c(c2CO1)CN(C(=O)c1cc(I)ccc1F)CC3 | 0 (no) |
| C[C@H]1Cc2c(COc3ccccc3)nc3c(c2CO1)CN(C(=O)Cc1cccs1)CC3 | 0 (no) |
| CCCCC1=CC2=C(c3ccco3)C(=O)C(C)(OC(=O)c3ccc(OC)cc3)C(=O)C2=CN1C1CCCC1 (stereo not given) | 0 (no) |
| COC(=O)CCCC1=CC2=CC(=O)C(C)(OC(=O)c3cccs3)C(=O)C2=CN1CC1CC1 (stereo not given) | 0 (no) |
| COC(=O)CCC(=O)OC1(C)C(=O)C2=CN(C3CCCC3)C(c3ccc(OC)cc3)=CC2=C(Br)C1=O (stereo not given) | 0 (no) |
| C=CCN1c2ccccc2[C@]23C[C@@H](C(=O)OC)N(S(=O)(=O)CCCC)C2=NC(C(=O)OC)=C(C(=O)OC)[C@H]13 | 0 (no) |
| C#CCCOC(=O)N1C2=NC(C(=O)OC)=C(C(=O)OC)[C@@H]3N(Cc4ccccc4)c4ccccc4[C@]23C[C@H]1C(=O)OC | 0 (no) |
| C[C@@H]1CC[C@H]2C(=O)N(Cc3ccccc3)C[C@H](O)CN2[C@H]1c1ccc(Br)cc1 | 0 (no) |
| CC(C)CON=C1C[C@@H](O)[C@@H](O)[C@@H]2[C@H]3C(=O)N(C4CCCCC4)C(=O)[C@@H]3CC[C@H]12 | 0 (no) |
| COC(=O)C1=C(C(=O)OC)[C@@H]2Nc3ccccc3[C@@]23C[C@@H](C(=O)OC)N(S(=O)(=O)c2c(C)noc2C)C3=N1 | 0 (no) |
| CC#CCN1c2ccccc2[C@]23C[C@@H](C(=O)OC)N(C(=O)CC(C)C)C2=NC(C(=O)OC)=C(C(=O)OC)[C@H]13 | 0 (no) |
| COC(=O)N1C(/C=C/c2ccc3c(c2)OCO3)=Cc2ccccc2C1CC(C)=O (stereo not given) | 0 (no) |
| Cc1cc2c(c(=O)n1-c1ccccc1)[C@H]1O[C@](c3ccsc3)(Cc3cc(C#N)ccc31)O2 | 0 (no) |
| CCCCS(=O)(=O)N1C2=NC(C(=O)OC)=C(C(=O)OC)[C@@H]3N(C)c4ccc(OC)cc4[C@]23C[C@H]1C(=O)OC | 0 (no) |
| CCN(CC)CCCN1C=C2C(=O)C(C)(OC(=O)CCc3ccccc3)C(=O)C=C2C=C1c1ccc(C#N)cc1 (stereo not given) | 0 (no) |

----------
Target or test system: Cytochrome P450 3A4 (Homo sapiens)
Method summary: qHTS Assay for Activators of Cytochrome P450 3A4 (AID 885); note: nearly all actives have a fitted effect of over 65% in size
Condition context: recombinant CYP3A4, Luciferin-PPXE luminescence, 60 min; series mostly up to 57.1 µM
Calls of active or inactive are those of the source. The call rests on the fitted dose curve; in most records, active means well fitted activation curve with a large enough effect; inconclusive means small, poorly fitted or top-dose-only effect; inactive means no such curve, though single readings can be large or run the other way.

| Compound | activity change, positive = activation |
| --- | --- |
| CNC(=O)[C@@]1(C)C=C[C@@H](Cc2ccccc2)N1C(=O)OC | inactive |
| COC(=O)[C@@]1(Cc2ccccc2)[C@H]2c3cc(C(=O)N4CCCC4)n(CCN4CNCC4=O)c3C[C@H]2CN1C(=O)c1ccccc1 | inactive |
| C/C=C/C1Oc2ccc(OC)cc2N2C(=O)C(C)C(OCOC)C12 (centres undefined) | -50.7% [at 11.4 µM] (inactive) |
| COC(=O)c1ccc(C(NC(=O)OCc2ccccc2)/C(I)=C/[C@@H](C)C(=O)NCc2ccncc2)cc1 (some centres undefined) | inactive |

----------
Target or test system: Cytochrome P450 3A4 (Homo sapiens) (UniProt P08684)
Sequence (P08684 whole entry, looked up): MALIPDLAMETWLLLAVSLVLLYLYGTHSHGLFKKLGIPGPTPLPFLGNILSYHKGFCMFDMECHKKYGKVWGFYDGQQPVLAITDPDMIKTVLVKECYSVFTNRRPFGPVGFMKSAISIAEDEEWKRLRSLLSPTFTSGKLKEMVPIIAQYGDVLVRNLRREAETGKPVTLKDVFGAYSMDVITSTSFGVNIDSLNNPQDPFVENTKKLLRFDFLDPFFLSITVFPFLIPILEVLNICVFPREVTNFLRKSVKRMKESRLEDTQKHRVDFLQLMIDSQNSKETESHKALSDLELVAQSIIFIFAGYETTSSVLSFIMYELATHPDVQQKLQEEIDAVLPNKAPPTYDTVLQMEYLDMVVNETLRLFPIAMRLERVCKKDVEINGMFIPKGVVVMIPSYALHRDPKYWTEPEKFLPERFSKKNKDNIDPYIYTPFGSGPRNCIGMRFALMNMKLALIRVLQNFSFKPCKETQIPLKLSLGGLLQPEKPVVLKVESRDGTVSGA
Method summary: qHTS Assay for Inhibitors and Substrates of Cytochrome P450 3A4 (AID 884); note: nearly all actives have a fitted effect of over 50% in size
Condition context: recombinant CYP3A4, Luciferin-PPXE luminescence; series mostly up to 57.1 µM
Procedure: NIH Molecular Libraries Screening Centers Network [MLSCN] NIH Chemical Genomics Center [NCGC] The P450 gene superfamily is involved in the metabolism and clearance of xenobiotics. […] The luciferin is then measured by luminescence after the addition of a luciferase detection reagent. […] Inhibitors and some substrates limit the production of luciferin, and decrease measured luminescence. […]
Results filed as inconclusive are left out. Calls of active or inactive are those of the source. Calls follow the shape of the dose curve; as a rule, active = well fitted inhibition curve with a large enough effect; inconclusive = small, poorly fitted or top-dose-only effect; inactive = no such curve, though single readings can be large or run the other way.
Possible outcomes: active, inactive

| Compound | Class |
| --- | --- |
| CC(=O)c1ccc(C2C=CC(Oc3ccc(F)cc3C)C(CO)O2)cc1 (stereo unspecified) | active |
| CCC1=C(OC(=O)N(CC)CC)N2C(=O)OC(=NCCc3c[nH]c4ccccc34)[C@]2(C)[C@H]2C1=CC[C@H]1C(=O)N(CC)C(=O)[C@H]12 | active |
| COc1cccc([C@@H]2Oc3ccc(OC)cc3C(=O)[C@H]2O)c1 | active |
| C[C@@H]1O[C@@H](OC[C@H]2O[C@@H](Oc3c(-c4cccc(O)c4O)oc4cc(O)cc(O)c4c3=O)[C@H](O)[C@@H](O)[C@@H]2O)[C@H](O)[C@H](O)[C@H]1O | inactive |
| O=C(O)C(S)[C@@H](S)C(=O)O (stereo partly specified) | inactive |
| COc1c2ccoc2c(OC)c2oc(=O)ccc12 | active |
| C/C(CCN1CCc2nc(-c3ccccc3)c(-c3ccccc3)cc2C1)=N\O[C@@H](C)CN1CCCCc2nc(C)c(C)cc21 | active |
| CCC1=C2CC[C@H]3C(=O)N(C)C(=O)[C@H]3[C@H]2[C@@]2(Cc3ccccc3)C(=NCCc3c[nH]c4ccccc34)OC(=O)N2C1=O | active |
| CCC1=C(OC(=O)N(CC)CC)N2C(=O)OC(=NCc3ccccc3)[C@]2(C)[C@H]2C1=CC[C@H]1C(=O)NC(=O)[C@H]12 | active |
| CCCCCCNC(=O)Nc1ccc(S(=O)(=O)Nc2ccc(CCNC[C@H](O)COc3ccc(O)cc3)cc2)cc1 | active |
| C=CC[C@@H]1C=C[C@H](Oc2ccc(C)cc2)[C@H](COC(=O)NCc2cccc3ccccc23)O1 | active |
| COC(=O)C/C=C\[C@@H](C)[C@@H](/C=N\OC[C@@H]1O[C@H](c2ccccc2)C=C[C@@H]1Oc1ccc(OC)cc1)NS(=O)(=O)c1ccc(C)cc1 | active |
| O=Cc1ccc(B(O)O)cc1 | inactive |
| COC(=O)c1ccc(C(NC(=O)OCc2ccccc2)/C(C)=C/[C@@H](C)C(=O)NCCc2c[nH]c3ccc(OC)cc23)cc1 (stereo partly specified) | active |
| O=c1c(-c2ccc(O)cc2)coc2c(C3OC(CO)C(O)C(O)C3O)c(O)ccc12 (stereo unspecified) | inactive |
| COC(=O)[C@@H]1C[C@H]2CC[C@H](O)C[C@H]2N1Cc1ccccc1OC(=O)c1cccs1 | active |
| COC(=O)c1ccc(C(/C=C/[C@@H](C)C(=O)NCc2ccccc2)NC(=O)OCc2ccccc2)cc1 (stereo partly specified) | active |
| CC(=O)N1C2(C=CC1(C)C(=O)NCc1ccc(C)o1)CCCCC2 (stereo unspecified) | inactive |
| CC(Cc1ccccc1)C(=O)NCCc1c[nH]c2ccccc12 (stereo unspecified) | active |
| COc1ccc(OC2C=CC(c3ccccc3)OC2CO)cc1 (stereo unspecified) | active |
| CCC1=C(OC(=O)N(CC)CC)N2C(=O)OC(=NCCc3c[nH]c4ccccc34)[C@]2(C)[C@H]2C1=CC[C@H]1C(=O)N(C)C(=O)[C@H]12 | active |
| COC(=O)N1[C@H](Cc2ccccc2)C=C[C@]1(C)C(=O)NCc1ccccn1 | active |
| CNC(=O)C1(C)C=CCN1C(=O)OC (stereo unspecified) | inactive |
| CC(C)(C)c1ccc(OC2C=CC(C#Cc3ccccc3)OC2CO)cc1 (stereo unspecified) | active |
| COc1ccc(-c2cc(=O)c3ccccc3o2)cc1 | active |
| COC(=O)c1ccc(C(NC(=O)OCc2ccccc2)/C(=C/[C@@H](C)C(=O)NCc2cc(F)cc(F)c2)c2cccnc2)cc1 (stereo partly specified) | active |
